Biological target: human Fpn (Homo sapiens, UniProt Q9NP59)
Construct: FLAG (C); made in house; host or cells: Pichia pastoris
Sequence (Q9NP59 1-571): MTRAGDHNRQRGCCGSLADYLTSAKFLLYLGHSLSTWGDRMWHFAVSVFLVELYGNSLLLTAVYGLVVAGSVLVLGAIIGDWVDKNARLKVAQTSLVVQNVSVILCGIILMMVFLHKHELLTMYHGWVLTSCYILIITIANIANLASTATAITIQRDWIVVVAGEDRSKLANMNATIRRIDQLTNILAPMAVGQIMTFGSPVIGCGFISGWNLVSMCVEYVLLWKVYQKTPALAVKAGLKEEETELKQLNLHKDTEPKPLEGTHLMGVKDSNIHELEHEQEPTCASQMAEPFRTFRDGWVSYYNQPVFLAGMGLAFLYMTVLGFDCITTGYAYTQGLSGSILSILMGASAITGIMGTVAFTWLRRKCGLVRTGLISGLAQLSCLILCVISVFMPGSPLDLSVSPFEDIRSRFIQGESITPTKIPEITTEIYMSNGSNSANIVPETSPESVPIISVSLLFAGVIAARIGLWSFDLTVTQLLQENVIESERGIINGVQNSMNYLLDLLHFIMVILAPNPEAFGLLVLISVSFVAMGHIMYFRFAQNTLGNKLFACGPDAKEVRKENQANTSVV
Assay: Biophysical Ferroportin-Hepcidin Binding Assay (fluorescence polarization)
Settings: average of multiple measurements; 1 μM human Fpn, 20 nM TMR-hepcidin; read-out: FP IC50
Property measured: IC50 (nM)
Answers are plain numbers, in nM.

Worked cases, answers included:
O=C(NCc1ncc(F)cc1F)c1csc(CCNCc2nc3ccccc3[nH]2)n1
478
O=C(NCc1ccncc1F)c1csc(CCNCc2nc3ccccc3[nH]2)n1
922
O=C(NCc1ncc(C(F)(F)F)cc1Cl)c1csc(CCNCc2nc3ccccc3[nH]2)n1
315
N#Cc1ccccc1CNC(=O)c1csc(CCNCc2nc3ccccc3[nH]2)n1
508
O=C(NCc1ccccc1)c1csc(CCNCCc2nc3ccccc3[nH]2)n1
136
Cn1c(CNCCc2nc(C(=O)NCc3ccccc3)cs2)nc2ccccc21
1220
O=C(NCc1ccccc1)c1csc(CCNCc2ncc[nH]2)n1
9610
O=C(NCc1ncccc1Cl)c1ncn(CCNCc2nc3ccccc3[nH]2)n1
280
O=C(NCc1ncccc1F)c1csc(CCNCCCc2nc3ccccc3[nH]2)n1
3700
O=C(NCc1ncccc1F)c1coc(CCNCc2nc3ccccc3[nH]2)n1
120

Consider the following items and state reported IC50 for each.
1. CN(C)c1ccc(CNC(=O)c2csc(CCNCc3nc4ccccc4[nH]3)n2)cn1
2. O=C(NCc1ccncn1)c1csc(CCNCc2nc3ccccc3[nH]2)n1
3. O=C(NCc1ncc(F)cc1F)c1csc(CCNCCc2nc3ccccc3[nH]2)n1
4. O=C(NCc1ncccc1F)c1csc(CCCNCc2nc3ccccc3[nH]2)n1
5. COc1cc(CNC(=O)c2csc(CCNCc3nc4ccccc4[nH]3)n2)ccn1
6. Cc1c(CNC(=O)c2csc(CCNCc3nc4ccccc4[nH]3)n2)cnn1C
7. O=C(NCc1ncccc1F)c1nc(CCNCCc2nc3ccccc3[nH]2)sc1Cl
8. O=C(NCc1ncccc1F)c1cncc(CCNCCc2nc3c(F)cccc3[nH]2)c1

1. 5710
2. 5340
3. 58
4. 970
5. 1760
6. 1420
7. 30
8. 263
